meta.source: paper PMC10648942

# test details: clinical
# Parameters: species or system human
# condition info: human, in vivo, mean peak concentration (C max)
# Excerpt: This was a Phase 1, open-label study to assess the safety, tolerability, and PK of a single 100-mg IV dose of SPR206 administered to healthy adults with normal renal function and those with varying degrees of RI including subjects with ESRD on HD. Subjects were screened within 28 days prior to dosing. Study drug administration occurred on day 1 for Cohorts 1–4 (normal renal function, mild RI, moderate RI, and severe RI) and on days 1 and 5 for Cohort 5 (ESRD on HD). […]
Bridge positions count the residues as written; N and C are the ends. Square brackets hold non-standard residues; d marks the D form. Peptide text beside a SMILES is read from it. * marks the point of attachment. X1 = NC[C@@H](CC(=O)*)c1cccc(Cl)c1; Dab = NCC[C@H](N)C(=O)O; Dap = NC[C@H](N)C(=O)O
reported property: Cmax

INSERT INTO measurements (compound, assay_value) VALUES
  ('CC(C)C[C@@H]1NC(=O)[C@@H](Cc2ccccc2)NC(=O)[C@H](CCN)NC(=O)[C@@H](NC(=O)[C@H](CN)NC(=O)[C@@H](NC(=O)C[C@H](CN)c2cccc(Cl)c2)[C@@H](C)O)CCNC(=O)[C@H]([C@@H](C)O)NC(=O)[C@H](CCN)NC(=O)[C@H](CCN)NC1=O [SPR206] (X1-T[Dap][Dab][Dab][dF]L[Dab][Dab]T; lactam 3-C (inferred))', '~6500 ng/mL');

====

# test details: clinical
# Parameters: species or system human
# condition info: human, in vivo, C max, LS GM (SE)
# Source text: This was a Phase 1, open-label study to assess the safety, tolerability, and PK of a single 100-mg IV dose of SPR206 administered to healthy adults with normal renal function and those with varying degrees of RI including subjects with ESRD on HD. Subjects were screened within 28 days prior to dosing. Study drug administration occurred on day 1 for Cohorts 1–4 (normal renal function, mild RI, moderate RI, and severe RI) and on days 1 and 5 for Cohort 5 (ESRD on HD). […]
Bridge positions count the residues as written; N and C are the ends. Square brackets hold non-standard residues; d marks the D form. Peptide text beside a SMILES is read from it. * marks the point of attachment. X1 = NC[C@@H](CC(=O)*)c1cccc(Cl)c1; Dab = NCC[C@H](N)C(=O)O; Dap = NC[C@H](N)C(=O)O
reported property: Cmax (µg/mL)

INSERT INTO assay_data (molecule, reported_property, readout_units, assay_value) VALUES
  ('CC(C)C[C@@H]1NC(=O)[C@@H](Cc2ccccc2)NC(=O)[C@H](CCN)NC(=O)[C@@H](NC(=O)[C@H](CN)NC(=O)[C@@H](NC(=O)C[C@H](CN)c2cccc(Cl)c2)[C@@H](C)O)CCNC(=O)[C@H]([C@@H](C)O)NC(=O)[C@H](CCN)NC(=O)[C@H](CCN)NC1=O [SPR206] (X1-T[Dap][Dab][Dab][dF]L[Dab][Dab]T; lactam 3-C (inferred))', 'Cmax', 'µg/mL', 5.9);

====

# test details: clinical
# Parameters: species or system human
# condition info: human, in vivo, AUC0−8, LS GM (SE)
Bridge positions count the residues as written; N and C are the ends. Square brackets hold non-standard residues; d marks the D form. Peptide text beside a SMILES is read from it. * marks the point of attachment. X1 = NC[C@@H](CC(=O)*)c1cccc(Cl)c1; Dab = NCC[C@H](N)C(=O)O; Dap = NC[C@H](N)C(=O)O
reported property: AUC(0-t)

INSERT INTO measurements (compound, assay_value) VALUES
  ('CC(C)C[C@@H]1NC(=O)[C@@H](Cc2ccccc2)NC(=O)[C@H](CCN)NC(=O)[C@@H](NC(=O)[C@H](CN)NC(=O)[C@@H](NC(=O)C[C@H](CN)c2cccc(Cl)c2)[C@@H](C)O)CCNC(=O)[C@H]([C@@H](C)O)NC(=O)[C@H](CCN)NC(=O)[C@H](CCN)NC1=O [SPR206] (X1-T[Dap][Dab][Dab][dF]L[Dab][Dab]T; lactam 3-C (inferred))', '17300 ng·h/mL');
